Examples of compounds with documented growth inhibition by drug alone follow.
System: RIVA
Procedure Summary: growth inhibition by drug alone (1 - RLU/untreated control) (fraction); higher = stronger inhibition
Condition: 10 nM; time (day): 3; 177Lu-lilotomab satetraxetan 0 ug/ml
Where a name gives a salt, the structure may show the parent alone.
Readout Kind: growth inhibition by drug alone

CCC(=O)N1CCN(c2ccc(-n3c(=O)ccc4cnc5ccc(-c6cnc7ccccc7c6)cc5c43)cc2C(F)(F)F)CC1	0.0288
Cn1cc(C2=C(c3ccc(Cl)cc3Cl)C(=O)NC2=O)c2ccccc21	-0.0583
COC(=O)C1=C(C)NC(C)=C(C(=O)OCCCN2CCC(c3ccccc3)(c3ccccc3)CC2)[C@H]1c1cccc([N+](=O)[O-])c1 [S-(+)-Niguldipine hydrochloride]	0.00175
Oc1ccc(Nc2nc(-c3ccc(Cl)cc3)cs2)cc1	-0.021
COc1ccc(CCN2CCN(CCCc3ccccc3)CC2)cc1OC	-0.0905
COc1cc2c(N3CCN(C(=O)Nc4ccc(OC(C)C)cc4)CC3)ncnc2cc1OCCCN1CCCCC1	-0.157
Cc1cnc(-c2cnc(NCCNc3ccc(C#N)cn3)nc2-c2ccc(Cl)cc2Cl)[nH]1	0.0622
C[C@@H](Oc1cc(-n2cnc3ccc(CN4CCN(C)CC4)cc32)sc1C(N)=O)c1ccccc1C(F)(F)F	0.364
CS(=O)(=O)N1CCc2c(-c3cnc(N)nc3)nc(N3CCOCC3)nc21	0.14
COc1ccc(S(=O)(=O)Nc2cccnc2Nc2ccc(O)cc2)cc1	-0.0856
CCc1c2c(nc3ccc(OC(=O)N4CCC(N5CCCCC5)CC4)cc13)-c1cc3c(c(=O)n1C2)COC(=O)[C@]3(O)CC [Irinotecan HCl Trihydrate (Campto)]	-0.0524
O=C1CN2Cc3c(ccc(Cl)c3Cl)N=C2N1 [Anagrelide hydrochloride]	0.16
COc1ccccc1OCC(O)CN1CCN(CC(=O)Nc2c(C)cccc2C)CC1 (centres undefined) [Ranolazine (Ranexa)]	0.0348
CCn1c(-c2nonc2N)nc2c(C#CC(C)(C)O)ncc(OC[C@H]3CCCNC3)c21	0.0369
COC(=O)Nc1ccc(-c2nc(N3CCOCC3)c3cnn(C4CCN(C(=O)OC)CC4)c3n2)cc1	0.0376
Cc1ccnc(NS(=O)(=O)c2ccc(NC(=O)Nc3ccc(S(=O)(=O)Nc4nccc(C)n4)cc3)cc2)n1	0.0129
CC(C)C[C@@H](C(=O)N[C@H](C(=O)OC1CCCC1)c1ccccc1)[C@H](O)C(=O)NO	0.0304
CC[C@@H]1C(=O)N(C)c2cnc(Nc3ccc(C(=O)NC4CCN(C)CC4)cc3OC)nc2N1C1CCCC1	0.903
CS(=O)(=O)CCNCc1ccc(-c2ccc3ncnc(Nc4ccc(OCc5cccc(F)c5)c(Cl)c4)c3c2)o1 [Lapatinib Ditosylate (Tykerb)]	-0.0232

Measured values drawn from the supplement of paper PMC6897291 for this set.
